Test: protein stability index of a GFP-peptide fusion (yeast GPS) (PSI 1-4); higher = more stable; sorted into four equal gates, so the index is relative within each strain
Conditions: doa10∆
Measured metric: protein stability index
Note: the reply should be a number with no unit written.

{"Biosequence": "KQQEQLEQQKQPTGLLK [YMR153W/NUP53]", "Measured metric": "protein stability index", "Numeric result": 3.35}
{"Biosequence": "RVARRNAARKAEASGEA [RPS9A]", "Measured metric": "protein stability index", "Numeric result": 3.32}

*Q* State the recorded protein stability index for this entry: HLLSINYGEKEERKRWA [PCI8]
*A* 3.17

*Q* State the recorded protein stability index for this entry: SDPAAKKTATEPKQKAN [SRP21]
*A* 3.21

*Q* State the recorded protein stability index for this entry: HVDSLIEDFVDGIANSK [SRB7]
*A* 3.06

*Q* State the recorded protein stability index for this entry: MSLQHEKVTIAPLVLLS [RPN8]
*A* 1.19

*Q* State the recorded protein stability index for this entry: VLGTPDQKIWPYLEKYP [SSN3]
*A* 2.42
